# Method notes: Antiproliferative activity against mouse Ba/F3 EML4-ALK cells assessed as inhibition of cell growth
# Type: functional, cell-based
Value type: pIC50
# pIC50 = -log10(concentration in molar units)

Request the reported pIC50 associated with "C[C@H]1CNC(=O)c2cnn3ccc(nc23)N[C@H](C)c2cc(F)ccc2O1"
6.79

###

# Tgt: Phosphatidylinositol 4,5-bisphosphate 3-kinase catalytic subunit gamma isoform (Homo sapiens)
# Sequence (P48736 whole entry, canonical isoform): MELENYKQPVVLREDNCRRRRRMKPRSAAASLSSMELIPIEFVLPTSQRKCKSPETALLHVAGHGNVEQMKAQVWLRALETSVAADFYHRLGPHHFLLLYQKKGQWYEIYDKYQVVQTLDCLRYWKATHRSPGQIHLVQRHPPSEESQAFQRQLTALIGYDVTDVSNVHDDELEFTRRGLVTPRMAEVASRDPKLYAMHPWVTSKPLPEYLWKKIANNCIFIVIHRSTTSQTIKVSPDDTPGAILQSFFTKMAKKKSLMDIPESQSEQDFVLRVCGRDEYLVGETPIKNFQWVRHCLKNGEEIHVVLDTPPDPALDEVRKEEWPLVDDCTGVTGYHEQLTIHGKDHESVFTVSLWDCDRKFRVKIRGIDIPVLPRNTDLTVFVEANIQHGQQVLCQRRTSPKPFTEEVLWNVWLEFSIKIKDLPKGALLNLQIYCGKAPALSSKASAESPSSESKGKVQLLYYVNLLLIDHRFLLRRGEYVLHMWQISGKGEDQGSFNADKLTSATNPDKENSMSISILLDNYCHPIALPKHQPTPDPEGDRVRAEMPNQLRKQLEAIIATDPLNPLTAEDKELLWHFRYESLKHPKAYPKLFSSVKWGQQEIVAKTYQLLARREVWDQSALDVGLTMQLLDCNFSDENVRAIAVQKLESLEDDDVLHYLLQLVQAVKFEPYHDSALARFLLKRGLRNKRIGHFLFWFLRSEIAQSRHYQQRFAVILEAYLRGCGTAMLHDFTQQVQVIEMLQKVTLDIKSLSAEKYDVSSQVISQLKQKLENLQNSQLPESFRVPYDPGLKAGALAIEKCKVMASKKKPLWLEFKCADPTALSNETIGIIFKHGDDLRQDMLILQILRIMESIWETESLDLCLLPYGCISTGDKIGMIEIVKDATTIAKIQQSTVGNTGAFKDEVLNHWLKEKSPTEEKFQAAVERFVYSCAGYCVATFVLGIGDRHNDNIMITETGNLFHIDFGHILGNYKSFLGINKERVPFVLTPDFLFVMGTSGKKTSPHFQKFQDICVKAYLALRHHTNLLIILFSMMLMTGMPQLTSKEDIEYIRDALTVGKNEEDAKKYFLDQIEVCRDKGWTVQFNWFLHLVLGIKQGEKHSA
# Method notes: Inhibition of PI3Kgamma (unknown origin)
Value type: pIC50
Scale: pIC50 equals -log10([C]), with [C] in mol/L.

// lookup pIC50 for "CCOC(=O)c1nn(-c2ccccc2)c(=O)c2c(N)c(C#N)c(-c3cccs3)cc12"
4.90
